Biological target: CPT II WT (Homo sapiens, UniProt P23786)
Construct: made in house; host or cells: Escherichia coli BL21Gold DE
Assay: Determination of inhibition constant Ki for R-amino carnitine (DTNB enzyme activity assay)
Assay type: biochemical
Conditions: 0.25 mM CL, 25 °C, read-out: Inhibition Constant Ki in Presence of CL
pKi: −log10 of the molar value.
Reported property: pKi

1) C[N+](C)(C)C[C@H](N)CC(=O)[O-]; 3.98

====

Molecular target: CPT II variant S113L (Homo sapiens, UniProt P23786, S113L)
Construct: made in house; host or cells: Escherichia coli BL21Gold DE
Sequence (P23786 26-658 S113L): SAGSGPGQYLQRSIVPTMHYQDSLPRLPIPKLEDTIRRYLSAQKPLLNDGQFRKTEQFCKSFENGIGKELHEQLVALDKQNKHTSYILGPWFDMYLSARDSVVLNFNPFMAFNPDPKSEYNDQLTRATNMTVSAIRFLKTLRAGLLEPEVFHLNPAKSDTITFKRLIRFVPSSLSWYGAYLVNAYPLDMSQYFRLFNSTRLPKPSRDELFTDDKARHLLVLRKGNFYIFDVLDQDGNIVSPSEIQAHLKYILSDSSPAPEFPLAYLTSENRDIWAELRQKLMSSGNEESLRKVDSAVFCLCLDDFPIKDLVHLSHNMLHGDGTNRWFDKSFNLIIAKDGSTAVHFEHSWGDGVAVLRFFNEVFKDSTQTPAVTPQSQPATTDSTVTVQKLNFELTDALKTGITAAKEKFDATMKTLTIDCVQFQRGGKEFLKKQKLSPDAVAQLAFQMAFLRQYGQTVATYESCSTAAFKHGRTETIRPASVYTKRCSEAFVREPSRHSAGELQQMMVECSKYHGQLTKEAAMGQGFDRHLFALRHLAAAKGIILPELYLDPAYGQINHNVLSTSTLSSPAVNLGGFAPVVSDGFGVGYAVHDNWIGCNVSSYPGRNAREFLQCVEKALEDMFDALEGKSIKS
Assay: Determination of inhibition constant Ki for R-amino carnitine (DTNB enzyme activity assay)
Format: biochemical
Settings: 0.25 mM CL, 25 °C, read-out: Inhibition Constant Ki in Presence of CL
pKi: −log10 of the molar value.
Reported property: pKi

1) C[N+](C)(C)C[C@H](N)CC(=O)[O-]; 4.44

====

Target: CPT II WT (Homo sapiens, UniProt P23786)
Construct: made in house; host or cells: Escherichia coli BL21Gold DE
Sequence (P23786 26-658): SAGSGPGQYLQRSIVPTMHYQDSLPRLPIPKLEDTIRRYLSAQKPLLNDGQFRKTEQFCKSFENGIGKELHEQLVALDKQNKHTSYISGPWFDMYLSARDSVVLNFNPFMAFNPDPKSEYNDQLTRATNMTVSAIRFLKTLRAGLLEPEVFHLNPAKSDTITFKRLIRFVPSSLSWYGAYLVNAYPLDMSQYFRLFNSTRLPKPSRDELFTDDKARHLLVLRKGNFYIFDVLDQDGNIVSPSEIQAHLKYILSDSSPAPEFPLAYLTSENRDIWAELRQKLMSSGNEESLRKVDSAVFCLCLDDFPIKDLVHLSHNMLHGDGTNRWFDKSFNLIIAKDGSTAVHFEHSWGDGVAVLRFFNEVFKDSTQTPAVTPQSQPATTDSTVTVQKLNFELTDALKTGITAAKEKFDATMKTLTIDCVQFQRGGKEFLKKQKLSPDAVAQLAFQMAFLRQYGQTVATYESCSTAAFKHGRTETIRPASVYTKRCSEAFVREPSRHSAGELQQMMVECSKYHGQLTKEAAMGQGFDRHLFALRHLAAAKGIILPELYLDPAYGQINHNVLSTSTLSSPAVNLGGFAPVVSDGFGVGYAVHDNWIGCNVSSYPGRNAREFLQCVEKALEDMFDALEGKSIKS
Test: Determination of inhibition constant Ki for R-amino carnitine (DTNB enzyme activity assay)
Format: biochemical
Settings: absence of CL, 25 °C, read-out: Inhibition Constant Ki in Absence of CL
pKi: −log10 of the molar value.
Reported property: pKi

1. C[N+](C)(C)C[C@H](N)CC(=O)[O-] [R-amino carnitine, R-Aminocarnitine]; 3.31

====

Target: CPT II variant Y479F (Homo sapiens, UniProt P23786, Y479F)
Construct: made in house; host or cells: Escherichia coli BL21Gold DE
Sequence (P23786 26-658 Y479F): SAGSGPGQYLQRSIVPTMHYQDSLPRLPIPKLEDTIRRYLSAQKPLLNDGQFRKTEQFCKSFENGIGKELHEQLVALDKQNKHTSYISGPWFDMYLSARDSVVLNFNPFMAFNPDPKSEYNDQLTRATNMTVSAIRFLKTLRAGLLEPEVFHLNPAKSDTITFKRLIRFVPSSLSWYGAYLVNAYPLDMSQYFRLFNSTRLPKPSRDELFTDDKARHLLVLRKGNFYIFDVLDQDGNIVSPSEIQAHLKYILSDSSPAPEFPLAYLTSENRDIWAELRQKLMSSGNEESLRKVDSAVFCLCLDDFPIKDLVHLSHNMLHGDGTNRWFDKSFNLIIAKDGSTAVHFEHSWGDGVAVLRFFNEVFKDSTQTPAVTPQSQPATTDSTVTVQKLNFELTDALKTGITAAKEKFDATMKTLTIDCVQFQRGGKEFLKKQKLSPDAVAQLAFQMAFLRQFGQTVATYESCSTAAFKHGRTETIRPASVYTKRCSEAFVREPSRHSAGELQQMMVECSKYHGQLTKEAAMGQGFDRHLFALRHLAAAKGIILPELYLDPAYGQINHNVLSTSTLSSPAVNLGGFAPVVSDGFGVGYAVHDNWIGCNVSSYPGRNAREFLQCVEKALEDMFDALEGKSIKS
Experiment: Determination of inhibition constant Ki for R-amino carnitine (DTNB enzyme activity assay)
Format: biochemical
Conditions: 0.25 mM CL, 25 °C, read-out: Inhibition Constant Ki in Presence of CL
Method: Before activity measurements, the storage buffer of the enzymes was replaced with assay buffer (50 mM KH2PO4, 120 mM KCl, 1 mM EDTA-Na4) using vivaspin turbo 4 tubes (Satorius Stedim biotech GmbH, Göttingen, Germany) at 4 °C. […] After that, the protein concentration was determined using bicinchoninic acid (BCA) protein assay kit (Thermo Fisher Scientific GmbH, Berlin, Germany). […] The reverse reaction of CPT II was detected with the enzyme activity assay. […]
Reported property: Ki (µM)

1. C[N+](C)(C)C[C@H](N)CC(=O)[O-]; 108

====

Target: CPT II variant Y479F (Homo sapiens, UniProt P23786, Y479F)
Construct: made in house; host or cells: Escherichia coli BL21Gold DE
Sequence (P23786 26-658 Y479F): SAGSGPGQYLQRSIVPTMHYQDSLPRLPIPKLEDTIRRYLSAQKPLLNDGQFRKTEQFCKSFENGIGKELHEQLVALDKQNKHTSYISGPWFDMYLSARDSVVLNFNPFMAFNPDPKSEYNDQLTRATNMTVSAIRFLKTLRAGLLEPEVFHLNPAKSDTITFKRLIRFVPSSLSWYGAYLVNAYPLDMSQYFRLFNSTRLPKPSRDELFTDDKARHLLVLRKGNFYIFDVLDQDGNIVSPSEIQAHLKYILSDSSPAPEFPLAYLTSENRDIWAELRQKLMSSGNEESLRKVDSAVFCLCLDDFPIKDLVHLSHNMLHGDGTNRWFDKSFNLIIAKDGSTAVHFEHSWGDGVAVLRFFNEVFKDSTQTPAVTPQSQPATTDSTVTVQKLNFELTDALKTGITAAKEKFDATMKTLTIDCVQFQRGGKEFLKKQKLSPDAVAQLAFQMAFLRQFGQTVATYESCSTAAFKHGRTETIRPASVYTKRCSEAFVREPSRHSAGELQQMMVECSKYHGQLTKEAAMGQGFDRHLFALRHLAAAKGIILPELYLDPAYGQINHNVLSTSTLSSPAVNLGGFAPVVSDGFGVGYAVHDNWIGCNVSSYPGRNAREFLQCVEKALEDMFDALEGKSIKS
Assay: Determination of inhibition constant Ki for R-amino carnitine (DTNB enzyme activity assay)
Assay type: biochemical
Conditions: absence of CL, 25 °C, read-out: Inhibition Constant Ki in Absence of CL
Reported property: Ki (µM)

1. C[N+](C)(C)C[C@H](N)CC(=O)[O-] [R-amino carnitine, R-Aminocarnitine]; 756

====

Target: CPT II variant P50H (Homo sapiens, UniProt P23786, P50H)
Construct: made in house; host or cells: Escherichia coli BL21Gold DE
Test: Determination of inhibition constant Ki for R-amino carnitine (DTNB enzyme activity assay)
Type: biochemical
Conditions: 0.25 mM CL, 25 °C, read-out: Inhibition Constant Ki in Presence of CL
pKi: −log10 of the molar value.
Reported property: pKi

1. C[N+](C)(C)C[C@H](N)CC(=O)[O-] [R-amino carnitine, R-Aminocarnitine]; 4.34

====

Target: CPT II variant P50H (Homo sapiens, UniProt P23786, P50H)
Construct: made in house; host or cells: Escherichia coli BL21Gold DE
Test: Determination of inhibition constant Ki for R-amino carnitine (DTNB enzyme activity assay)
Format: biochemical
Settings: absence of CL, 25 °C, read-out: Inhibition Constant Ki in Absence of CL
pKi: −log10 of the molar value.
Reported property: pKi

1) C[N+](C)(C)C[C@H](N)CC(=O)[O-]; 3.87
